system: CEM cells HIV-1 protection, formazan growth assay; assay: NCI AIDS Antiviral Assay;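 active means compounds giving half or more protection of infected cells from virus-caused growth loss, again on retest; inactive means the rest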
Mark one answer only. Choices: 1 (active), 0 (inactive)

Consider the worked cases shown below.
query: Tell me the assay call for `Cc1cccc(C(C)(C)C)c1NC(=O)CCc1n[nH]c(=S)o1` please.
result: 0

query: Tell me the assay call for `Cc1cccc(-n2c(C)nc3ccc(NC(=S)Nc4ccccc4)cc3c2=O)c1` please.
result: 0

query: Tell me the assay call for `O=S1(=O)CS(=O)(=O)OCCCCCO1` please.
result: 0

Next:
query: Tell me the assay call for `O=[N+]([O-])c1ccccc1S(=O)(=O)c1cccc2c1NCCC2` please.
result: 1

---

system: CEM cells HIV-1 protection, formazan growth assay; assay: NCI AIDS Antiviral Assay; conditions: measured here: growth of uninfected CEM cells
pIC50: −log10 of the molar value.
Listing of recorded pIC50 by entry.

Look over these answered cases.
Form: compound = O=C1C=C2CCN(C(=O)c3ccccc3)CC2O1 (stereo not drawn) ; pIC50 = < 3.70

Form: compound = `C#CCn1c2c(c3ccccc3c1=O)C(=O)c1ccccc1-2` ; pIC50 = < 4.20

Shifting focus to the compound that follows.
Form: compound = COC(=O)C(C)(NC(=O)C(CC(=O)OC(C)(C)C)NC(=O)OC(C)(C)C)c1ccccc1 (stereo not drawn) ; pIC50 = < 4.00

---

Listing of recorded pIC50 by entry.
tested on: CEM cells HIV-1 protection, formazan growth assay; test: NCI AIDS Antiviral Assay; conditions: measured here: growth of uninfected CEM cells
Hey, just a heads up that pIC50 is the negative log base 10 of the concentration in molar.

Look over these answered cases.
Form: molecule = `Cc1cc(C)n(-c2nc(-c3ccccc3)cs2)n1` ; pIC50 = 4.14

Form: molecule = `Cc1c(C(=N)C(C#N)C#N)c(=N)oc2c1ccc1ccccc12` ; pIC50 = 4.57

Next:
Form: molecule = `O=c1cc2cccccc-2o1` ; pIC50 = 3.53

Form: molecule = `COc1ccc(CCN2CCc3c(C)c(C#N)c4nc5ccccc5n4c32)cc1OC` ; pIC50 = 4.27

Form: molecule = `CC(=O)OCc1cc(OC(C)=O)c2cc3c(OC(C)=O)cccc3c(OC(C)=O)c2c1` ; pIC50 = 4.55

Form: molecule = `CN(C)c1nc(N(C)C)nc(N(C)C23CC4CC(CC(C4)C2)C3)n1` ; pIC50 = 4.19

Form: molecule = `CN(C)c1nc(=NCc2ccncc2)ss1` ; pIC50 = 4.97

Form: molecule = `O=C(Nc1sccc1S(=O)(=O)c1ccc(Cl)cc1)C(F)(F)F` ; pIC50 = 5.02

Form: molecule = `CC(=O)/C(=C/n1c(=S)sc2ccccc21)C(=O)Nc1ccccc1C` ; pIC50 = 3.77

Form: molecule = CC(C)NCC(O)c1ccc(OCc2ccccc2)c(OCc2ccccc2)c1-c1ccccc1 (configuration not stated) ; pIC50 = 5.51

---

test system: CEM cells HIV-1 protection, formazan growth assay; assay: NCI AIDS Antiviral Assay; conditions: measured here: growth of uninfected CEM cells
Endpoint: IC50

Form: compound = `C1#CCCCCCCC#CCCCCC1.[C-]#[O+].[C-]#[O+].[C-]#[O+].[C-]#[O+].[C-]#[O+].[C-]#[O+].[C-]#[O+].[C-]#[O+].[C-]#[O+].[C-]#[O+].[C-]#[O+].[C-]#[O+].[Co].[Co].[Co].[Co]` ; IC50 = > 2.57 µM

Form: compound = `N=c1c2ccccc2c2ccccc2n1O` ; IC50 = > 100 µM

Form: compound = CC1(C)CNC(=O)C2(CCCO2)CNC(C)(C)CNC(=O)C2(CCCO2)CN1 (stereo not drawn) ; IC50 = > 126 µM

Form: compound = `C=CCn1c(=O)c(-c2ccccc2)c(O)c2ccccc21` ; IC50 = > 200 µM

Form: compound = COC1CC(OC2C(C)OC(OC3C(C)OC(OC4C(C)OC(O[C@H]5CC[C@@]6(C)C(=CC[C@]7(O)[C@@H]6C[C@@H](OC(C)=O)[C@@]6(C)[C@]7(O)CC[C@@]6(O)C(C)=O)C5)CC4OC)CC3OC)CC2OC)OC(C)C1O (stereo partly drawn) ; IC50 = > 200 µM

Form: compound = `Cc1cc2c(C(C)C)c(O)c(O)c(C=Nc3ccc(-c4ccccc4)cc3)c2c(O)c1-c1c(C)cc2c(C(C)C)c(O)c(O)c(C=Nc3ccc(-c4ccccc4)cc3)c2c1O` ; IC50 = > 200 µM

Next:
Form: compound = O=C1CC(c2ccccc2)S(=O)c2ccccc2N1 (stereo not drawn) ; IC50 = > 200 µM

Form: compound = `COc1ccc(-c2cc(=O)c3cc(Cl)cc(Cl)c3o2)cc1OC` ; IC50 = > 100 µM

Form: compound = C=CCN=C1NC(=O)C(CC(=O)Nc2cccc(Cl)c2)S1 (stereo not drawn) ; IC50 = > 288 µM

Form: compound = `CCOC(=O)C(=O)N=Nc1nc2c(O)c3ccccc3c(O)c2s1` ; IC50 = 8.71 µM

Form: compound = CCOC(=O)c1c[nH]c2oc(/C=N/N3CC(CN4CCOCC4)OC3=O)cc2c1=O (stereo not drawn) ; IC50 = 162 µM

Form: compound = `Cc1ncc([N+](=O)[O-])n1CCN(C)CCCCn1ccnc1[N+](=O)[O-]` ; IC50 = > 200 µM

Form: compound = `N#Cc1ccccc1Nc1ccccc1S` ; IC50 = > 16.6 µM

Form: compound = `NNC(=S)N/N=C/C(Cl)=C(\Cl)C(=O)O` ; IC50 = > 28.2 µM

Form: compound = COC1=CC(=O)[C@]2(C)[C@H](C1=O)C(C)[C@H]2c1ccccc1 (stereo partly drawn) ; IC50 = > 95.5 µM

Form: compound = `NC(CSS(=O)(=O)O)=NCCc1ccccc1` ; IC50 = 110 µM

Form: compound = `COc1cc2c(cc1OC)[C@H]1C(=O)c3cc4c(cc3[C@H]1N(C)C2=O)OCO4` ; IC50 = 0.479 µM

---

system: CEM cells HIV-1 protection, formazan growth assay; test: NCI AIDS Antiviral Assay;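 active = compounds giving half or more protection of infected cells from virus-caused growth loss, again on retest; inactive = the rest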
Mark one answer only. Choices: active, inactive

Consider the worked cases shown below.
query: Tell me the assay call for `CCOC(=O)/C(=C\c1cccc(OC)c1)[Se]c1ccccc1` please.
result: inactive

query: Tell me the assay call for CC1=NC(C)=C(/C(C)=N/NC(=O)c2ccccc2O)C(C)/C1=C(/C)NNC(=O)c1ccccc1O (stereo not given) please.
result: inactive

query: Tell me the assay call for `Nc1nc(NC(=O)C2=NS(=O)(=O)c3cc(S(N)(=O)=O)c(Cl)cc3N2)n[nH]1` please.
result: inactive

query: Tell me the assay call for COC(=O)C1CCC(=S)N1C(=O)c1ccccc1 (stereo not given) please.
result: inactive

query: Tell me the assay call for COc1cc(C2c3cc4c(cc3OC(NCCO)C2C)OCO4)cc(OC)c1OC (stereo not given) please.
result: inactive

query: Tell me the assay call for `CCc1c(Cc2ccccc2)n(COCCO[Si](C)(C)C(C)(C)C)c(=O)[nH]c1=O` please.
result: inactive

query: Tell me the assay call for CC(=O)OC1C=CN(C(C)=O)C(SC(C)(C)C)C1(C)O (stereo not given) please.
result: inactive

query: Tell me the assay call for O=C1NN=C2CCCCCCC12Cl (stereo not given) please.
result: inactive

Now look at this entry.
query: Tell me the assay call for CCCCCCCCCCCCC(N=[N+]=[N-])C(=O)OCC1OC(n2cc(C)c(=O)[nH]c2=O)CC1O (stereo not given) please.
result: inactive

---

test system: CEM cells HIV-1 protection, formazan growth assay; test: NCI AIDS Antiviral Assay; conditions: measured here: growth of uninfected CEM cells
Where a SMILES comes first, the peptide text is derived from it.
Listing of recorded IC50 by entry.

Form: compound = CC(C)=CCC12Cc3ccc(O)cc3C(C(C)CN1)C2C (stereo not given) ; IC50 = > 200 µM

Form: compound = CC(C)CC(NC(=O)CNC(=O)C(CC(C)C)NC(=O)C(Cc1c[nH]cn1)NC(=O)C(CC(N)=O)NC(=O)C(C)NC(=O)C1CCCN1C(=O)C(Cc1ccc(O)cc1)NC(=O)C1CCCN1C(=O)C(C)NC(=O)C(CCC(=O)O)NC(=O)C(CC(=O)O)NC(=O)C(Cc1ccccc1)NC(=O)C(CC(N)=O)NC(=O)C(C)N)C(=O)O (stereo not given) (H-ANFDEAPYPANHLGL-OH; configuration not given here) ; IC50 = > 38 µM

Form: compound = COC(=O)C1CCC(=S)N1C(=O)c1ccccc1 (stereo not given) ; IC50 = > 200 µM

Form: compound = `Cc1ccc2c(c1)nc1sc(C)cc(=O)n12` ; IC50 = > 200 µM

Shifting focus to the compound that follows.
Form: compound = `NC(=O)c1cc(/C=C/c2ccccc2)on1` ; IC50 = > 200 µM
